# Test system: UACC-62
# protocol description: NCI tumour cell line growth inhibition, 48 h
Active and inactive are the calls of the source. No stated cut-off is given here; in the data, active = GI50 up to about 1.1 µM and inactive = higher.
readout: GI50

compound: [N-]=[N+]=NC(c1cn(C2CC(O)C(CO)O2)c(=O)[nH]c1=O)C(Cl)I (configuration not stated)
val: > 100 µM (inactive)

compound: O=C(CCBr)N1CCN(C(=O)CCBr)CC1
val: 18 µM (inactive)

compound: Cc1nnc2n1N=C(c1ccc(-c3ccc([N+](=O)[O-])cc3)o1)CS2
val: > 100 µM (inactive)

compound: O=c1c2ccccc2n2nnc3ccc(NCCNCCO)c1c32
val: 2.42 µM (inactive)

compound: Cc1ccn2c(=O)cc(CN3CCOCC3)nc2c1
val: 58.1 µM (inactive)

compound: CC1(C)Oc2ccc3c(=O)cc(-c4cccs4)oc3c2C1C(=O)O (configuration not stated)
val: > 10 µM (inactive)

compound: OCC1=CC(NC2CC(CO)C(O)C(O)C2O)C(O)C(O)C1O (configuration not stated)
val: > 100 µM (inactive)

compound: O=c1oc2c([N+](=O)[O-])cc([N+](=O)[O-])cc2c2ccccc12
val: > 100 µM (inactive)

List reported GI50 for each of these compounds:
1. c1ccc(C2=NCCN2)c(C2=NCCN2)c1
2. CCOC(=O)c1c(N2CCCC2)ncn(C)c1=S
3. Sc1nnc(COc2ccc(Cl)cc2)o1
4. CC(C)c1cccc(C(=O)NCCN(C)C)c1[N+](=O)[O-]

Response:
> 100 µM (inactive)
> 100 µM (inactive)
> 100 µM (inactive)
> 100 µM (inactive)

----------
# System: A498
# protocol description: NCI tumour cell line growth inhibition, 48 h
Activity calls are given as the source filed them. No stated cut-off is given here; in the data, active = GI50 up to about 1.1 µM and inactive = higher.
// classify into active, inactive

compound: O=C(NNC(=S)Nc1ccccc1)c1ccccc1Nc1ccccc1C(=O)NNC(=S)Nc1ccccc1
qualitative label: inactive

compound: O=c1sc2c(s1)SSSSS2
qualitative label: inactive

compound: CN(C)CCNC(=O)c1cccc2c1nc(-c1ccccc1)c1ccccc12
qualitative label: active

compound: CC1Cc2cc(O)ccc2C2[C@@H]1C1CC[C@H](O)[C@@]1(C)C[C@@H]2O[N+](=O)[O-] (some centres undefined)
qualitative label: inactive

compound: CC(=O)Oc1ccc(/C=C/C(=O)O[C@@H](C)[C@H](C)OC(=O)/C=C/c2ccc(OC(C)=O)c(OC(C)=O)c2)cc1OC(C)=O
qualitative label: inactive

Request: Given O=c1oc2c/c(=C\c3ccccc3)c(=O)c3cccc1c3-2 , state the outcome it received in this test.
Response: inactive

Request: Called result for CCCCCCCCCCCCCCCC(=O)OCC1OC(n2ccc(N)nc2=O)C(O)C1O (centres undefined)
Response: inactive

Request: What did the test return for CCOC(=O)CCN1C(=O)c2ccc(NC(=O)C(=O)O)cc2S1(=O)=O ?
Response: inactive

Request: Recorded test call requested for O=C1C(Sc2ccc3ccccc3c2)=C(Sc2ccc3ccccc3c2)C(=O)c2ccccc21
Response: inactive

Request: Check the results log: what was the call for COc1c(N2CCCCC2)c2c(=O)c3ccccc3oc2c2cc(C)oc12 ?
Response: inactive

Request: Check the results log: what was the call for CCOC(=O)c1nc2ccc(C(F)(F)F)cc2nc1Oc1cc(OC)c(OC)c(OC)c1 ?
Response: inactive

Request: Can you look up the reported call for CN(C)CCN(C)C(=O)c1cccc2cccc(C(=O)O)c12 for me?
Response: inactive

Request: So what was the verdict on CC(C)(C)OC(=O)N1N=NC2C1C1CC(OCc3ccccc3)(OCc3ccccc3)C2O1 (centres undefined) in this test?
Response: inactive

Request: Outcome? CC1(C)Oc2ccc3c(=O)cc(-c4cccs4)oc3c2C1C(=O)O (centres undefined)
Response: inactive
